Below, each of the molecules is paired with its reported composite z-score value.
Tested on: Inhibin beta A chain (activin A)
Assay: INHBA (activin A) binders on microarrays, primary screen, biochemical, small-molecule microarray, 635 nm fluorescence scan (AID 1107);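 also: mouse activin A protein probed at 4.33 µg/mL on printed slides; score merges bound-protein fluorescence near 667 nm with spot signal-to-noise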
Details: small-molecule microarray binding, higher = more signal
# respond with the number and nothing more

Please review the following examples before continuing.
[N-]=[N+]=NCc1ccccc1[C@@H]1OC(c2ccc(OCCCO)cc2)=N[C@]1(Cc1ccccc1N=[N+]=[N-])C(=O)NCc1ccccc1: 1.28
O=c1cccc(CCc2ccccc2)o1: 0.532

input: Retrieve composite z-score on Inhibin beta A chain (activin A); query CCOC(=O)C[C@H]1[C@H](OC(=O)c2ccc(C(=O)c3ccccc3)cc2)[C@@H](NC(=O)C2CCCCC2)c2cc(OCCCO)ccc2N1C(=O)c1ccccc1
output: 0.559

----------
Biological target: Pro-neuregulin-1, membrane-bound isoform (Homo sapiens) (UniProt Q02297)
Sequence (Q02297 whole entry, looked up, canonical isoform): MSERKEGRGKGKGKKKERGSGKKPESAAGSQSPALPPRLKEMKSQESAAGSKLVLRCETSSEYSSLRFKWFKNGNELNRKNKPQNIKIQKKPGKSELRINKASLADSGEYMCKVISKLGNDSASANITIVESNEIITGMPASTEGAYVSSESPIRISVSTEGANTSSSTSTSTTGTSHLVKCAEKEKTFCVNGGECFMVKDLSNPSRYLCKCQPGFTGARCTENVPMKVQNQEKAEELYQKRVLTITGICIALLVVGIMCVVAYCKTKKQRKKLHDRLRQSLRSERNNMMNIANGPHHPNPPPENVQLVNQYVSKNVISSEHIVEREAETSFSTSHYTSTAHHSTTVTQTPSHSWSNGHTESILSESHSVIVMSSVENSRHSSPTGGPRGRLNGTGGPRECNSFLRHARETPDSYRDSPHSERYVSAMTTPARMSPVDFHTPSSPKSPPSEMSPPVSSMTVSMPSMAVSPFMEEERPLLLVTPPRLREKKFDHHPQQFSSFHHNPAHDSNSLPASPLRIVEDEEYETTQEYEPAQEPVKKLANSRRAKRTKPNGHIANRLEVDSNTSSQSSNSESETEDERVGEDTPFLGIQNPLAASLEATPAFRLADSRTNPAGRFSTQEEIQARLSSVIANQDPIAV
Assay: NRG1 binders on small-molecule microarrays, primary screen, psychiatric disease protein project, biochemical, small-molecule microarray, fluorescence 635/667 (AID 1075);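 also: score combines 667 nm spot fluorescence with signal to noise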
Conditions: NRG1 binding, 635 nm fluorescence, higher = more signal
Reported composite z-score values for the following compounds.

Cc1ccc(S[C@]2(C(=O)NC3CC3)CC(=O)N(C3CCCCC3)[C@@H]2c2ccc(CO)cc2I)cc1: 1.29
COC(=O)[C@@]1(Cc2ccccc2)[C@H]2c3cc(C(=O)N4CCCC4)n(Cc4ccc(C)o4)c3C[C@H]2CN1C(=O)c1ccccc1: 1.37
O=C1O[C@H](c2ccccc2)[C@H](c2ccccc2)N2[C@H]1[C@@H](C(=O)NC[C@H](O)c1ccccc1)[C@]1(C(=O)Nc3ccc(C#CCCO)cc31)[C@H]2c1ccc(O)cc1: 0.0538
C=CCNC(=O)[C@@H]1[C@H]2C(=O)O[C@H](c3ccccc3)[C@H](c3ccccc3)N2[C@H](c2ccc(OCCO)cc2)[C@@]12C(=O)Nc1ccccc12: 1.51
O=C1C=CC(=O)[C@@H]2CC(COc3ccccc3)=C3[C@@H](CCc4ccccc4)OB(O)C[C@@H]3[C@H]12: -0.18
O=C1O[C@@H](c2ccccc2)[C@@H](c2ccccc2)N2[C@@H](c3ccccc3OCCO)[C@]3(C(=O)Nc4ccc(C#CC5(O)CCCCCC5)cc43)[C@@H](C(=O)Nc3nc4ccccc4s3)[C@H]12: 0.678
CC(C)C[C@@H]1NC(=O)[C@H]2C[C@@H](C(=O)NCCCCCNC(=O)CS)[C@@H](c3cccc(OCCO)c3)N2C1=O: 1.03
Cc1ccc(S[C@]2(C(=O)NCC(C)C)CC(=O)N(Cc3ccccc3)[C@@H]2c2ccc(CO)cc2I)cc1: 0.892

input: Report composite z-score for C=CCC(OC(C)=O)[C@@H]1[C@@H](N(Cc2cccc3ccccc23)C(=O)c2ccc(C)cc2)c2cc(OCCCO)ccc2N1C(=O)Cc1ccc(OC)cc1 (stereo not given in full)
output: 0.0635

input: Read off the recorded composite z-score for CCOC(=O)C1=CC[C@@H](c2ccccc2Cl)N(S(=O)(=O)c2ccc(C)cc2)C1
output: 1.31

----------
Biological target: NADPH oxidase 5 (Homo sapiens)
Assay: NOX5-dependent H2O2 signal modulators, primary screen, NOX inhibitor project, cell-based, HEK293-NOX5, Amplex Red fluorescence (AID 1161)
Settings: HEK293-NOX5, ionomycin, 45 min, higher = more signal
quantity.measured: z-score

Worked examples, 4 molecules total:
O=C1OCCC=C[C@H]2OC34C=CCN(Cc5ccccc5)C(=O)[C@H]3N(CCCO)C(=O)[C@@H]4C12 (stereo not given in full): -3.28
COc1ccc(CCN2C(=O)[C@@]3(Cc4ccccc42)c2ccccc2C(=O)N(Cc2ccccc2Cl)[C@H]3c2ccc(CO)cc2)cc1: 1.28
[N-]=[N+]=NCc1ccccc1C[C@@]1(C(=O)NCC(O)CO)N=C(c2ccc(OCCCO)cc2)O[C@@H]1c1ccccc1CN=[N+]=[N-] (stereo not given in full): 2.31
COC(=O)[C@@]1(Cc2ccc(OC)cc2)[C@H]2c3cc(C(=O)N4CCCC4)n(Cc4cc(F)cc5c4OCOC5)c3C[C@H]2CN1C(=O)c1ccccc1: -1.06

input: Determine from records and report z-score for C=C[C@H](C)[C@@H](O)c1ccc(O)c2ccccc12
output: 1.33

----------
Assay: basal S. cerevisiae growth modulation, no modifier, primary screen, OD600, strain BY4716, 24 h, basal condition (AID 1173)
Conditions: OD600, 24 h, higher = more signal, called active from +8 up or from −8 down
Each record here notes measured z-score.
Form rule: numeric answer, no unit written next to it.

Previously resolved entries follow.
O=C1C2C=CC(C(O)c3cccs3)N(Nc3ccccc3F)C2C(=O)N1c1ccccc1 (centres undefined): -1.3
CC(=O)Nc1cc(Br)ccc1C(=O)O: 0.311
CCCNC(=O)[C@@H]1c2ccccc2C(=O)N(Cc2ccccc2)[C@H]1c1ccc(CO)cc1: 0.215

input: Input COc1ccc([Si](C)(C)[C@H]2[C@H](CC(=O)N(CCO)Cc3ccccc3)O[C@@]3(C(=O)N(Cc4cccc(N5CCC5=O)c4)c4ccccc43)[C@@H]2C)cc1 , output reported z-score.
output: -0.0113

input: Report z-score for O=C1O[C@@H](c2ccccc2)[C@@H](c2ccccc2)N2[C@@H](c3ccc(O)cc3)[C@]3(C(=O)Nc4ccc(C#CC5(O)CCCCCC5)cc43)[C@@H](C(=O)N3CCCCCCC3)[C@H]12
output: -0.479

input: Give the value of z-score reported for the following: CCCCCN1CC=CC23O[C@@H]4/C=C\CCC(C)OC(=O)C4[C@H]2C(=O)N(CCCCCO)[C@@H]3C1=O (some centres undefined)
output: -1.12

input: Determine from records and report z-score for C=C[C@@H](COC(C)=O)N(Cc1ccccc1[N+](=O)[O-])S(=O)(=O)c1ccc(Br)cc1
output: -2.24

input: Input O=C(CS)NCCCCCCNC(=O)[C@H]1C[C@H]2C(=O)NCC(=O)N2[C@H]1c1ccc(O)cc1 , output reported z-score.
output: 0.309

input: Give z-score for the following molecule: CC1CC/C=C\[C@H]2OC34C=CCN(Cc5ccccc5)C(=O)[C@H]3N(CCCCCO)C(=O)[C@@H]4C2C(=O)O1 (some centres undefined)
output: -0.308

----------
Assay: compound binding in COS7 lysate, probe aLAP1, primary screen, cell lysate, small-molecule microarray (AID 1124);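 also: lysate comes from COS7 cells expressing LAP1 and is applied at 0.3 µg/mL; score merges spot fluorescence near 667 nm with signal-to-noise over triplicate slides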
Conditions: probe aLAP1, fluorescence, higher = more signal
quantity.measured: composite z-score
Reply: number alone, nothing else.

CC(C)CNC(=O)[C@@H]1c2ccccc2C(=O)N(Cc2cc(C(F)(F)F)cc(C(F)(F)F)c2)[C@H]1c1ccc(CO)cc1: 0.0574
O=C1OCC=C[C@H]2OC34C=CCN(c5ccc6ccccc6c5)C(=O)[C@H]3N(CCCO)C(=O)[C@@H]4[C@@H]12 (some centres undefined): 1.26
O=c1cccc(CCc2ccccc2)o1: -0.397

Now for another entry.
input: Read the entry CN1C=C(C(=O)OCCS(C)(=O)=O)C(C(=O)OCCS(C)(=O)=O)=CC(CCCO)=CC1C1CC1 (centres undefined) and write its reported composite z-score.
output: -0.0075

----------
Test: S. cerevisiae growth modulation with rapamycin, primary screen, strain BY4716, OD600, 96 h (AID 1091); also: test concentration not given here
Details: higher = more signal, called active from +8 up or from −8 down
# maps each entry to its z-score
Number, no unit, nothing else.

Sample records with z-score:
O=c1cccc(CCc2ccccc2)o1: 0.102
CC(C)(C)N1CC=CC23O[C@@H]4/C=C\CCCOC(=O)C4[C@H]2C(=O)N(CCO)[C@@H]3C1=O (stereo partly specified): -0.1
O=C1C[C@@](C(=O)NC2CC2)(c2ccc([N+](=O)[O-])cc2)[C@@H](c2ccc(CO)cc2)N1CC12CC3CC(CC(C3)C1)C2: 0.122
N[C@@H](Cc1ccccc1)Cn1cc(-c2ccccc2)nn1: 0.371
CCCNC(=O)[C@@H]1c2ccccc2C(=O)N(Cc2ccccc2)[C@H]1c1ccc(CO)cc1: 0.633

input: Note down z-score recorded for CC(C)C(=C=CC[C@H](O)c1ccccc1OCCO)C[C@H](O)c1ccccn1
output: -0.365

----------
Tested on: Lefty1
Assay: Lefty1 binders on small-molecule microarrays, primary screen, biochemical, small-molecule microarray, 635/667 nm fluorescence (AID 1139)
Settings: small-molecule microarray binding, fluorescence 635/667; higher = more signal
quantity.measured: composite z-score

Cc1ccc(S[C@]2(C(=O)NC3CC3)CC(=O)N(Cc3ccccc3)[C@@H]2c2ccc(CO)cc2)cc1: -0.663

input: Tell me its composite z-score given [N-]=[N+]=NCc1ccccc1C[C@]1(C(=O)O)N=C(c2ccc(OCCCO)cc2)O[C@H]1c1ccccc1 as the entry.
output: -1.43

input: Quote composite z-score reported for C[N+](C)(C)CCCCCCNC(=O)[C@H]1C[C@H]2C(=O)N3CCC[C@H]3C(=O)N2[C@H]1c1ccc(O)cc1 please.
output: 1.12

input: Annotate the compound CCCCC=C[C@@H](NC(=O)c1ccco1)c1ccccc1 with its measured composite z-score.
output: -0.337
